biological target: Nuclear receptor coactivator 3 (Homo sapiens) (UniProt Q9Y6Q9); test: NCOA3 reporter inhibition potency – cell-based, luminescence, dose response (AID 602166); details: SRC3 luciferase reporter cell assay;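 further: potency for reduction of SRC3 reporter signal so compounds are inhibitors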
Sequence (Q9Y6Q9 whole entry, looked up): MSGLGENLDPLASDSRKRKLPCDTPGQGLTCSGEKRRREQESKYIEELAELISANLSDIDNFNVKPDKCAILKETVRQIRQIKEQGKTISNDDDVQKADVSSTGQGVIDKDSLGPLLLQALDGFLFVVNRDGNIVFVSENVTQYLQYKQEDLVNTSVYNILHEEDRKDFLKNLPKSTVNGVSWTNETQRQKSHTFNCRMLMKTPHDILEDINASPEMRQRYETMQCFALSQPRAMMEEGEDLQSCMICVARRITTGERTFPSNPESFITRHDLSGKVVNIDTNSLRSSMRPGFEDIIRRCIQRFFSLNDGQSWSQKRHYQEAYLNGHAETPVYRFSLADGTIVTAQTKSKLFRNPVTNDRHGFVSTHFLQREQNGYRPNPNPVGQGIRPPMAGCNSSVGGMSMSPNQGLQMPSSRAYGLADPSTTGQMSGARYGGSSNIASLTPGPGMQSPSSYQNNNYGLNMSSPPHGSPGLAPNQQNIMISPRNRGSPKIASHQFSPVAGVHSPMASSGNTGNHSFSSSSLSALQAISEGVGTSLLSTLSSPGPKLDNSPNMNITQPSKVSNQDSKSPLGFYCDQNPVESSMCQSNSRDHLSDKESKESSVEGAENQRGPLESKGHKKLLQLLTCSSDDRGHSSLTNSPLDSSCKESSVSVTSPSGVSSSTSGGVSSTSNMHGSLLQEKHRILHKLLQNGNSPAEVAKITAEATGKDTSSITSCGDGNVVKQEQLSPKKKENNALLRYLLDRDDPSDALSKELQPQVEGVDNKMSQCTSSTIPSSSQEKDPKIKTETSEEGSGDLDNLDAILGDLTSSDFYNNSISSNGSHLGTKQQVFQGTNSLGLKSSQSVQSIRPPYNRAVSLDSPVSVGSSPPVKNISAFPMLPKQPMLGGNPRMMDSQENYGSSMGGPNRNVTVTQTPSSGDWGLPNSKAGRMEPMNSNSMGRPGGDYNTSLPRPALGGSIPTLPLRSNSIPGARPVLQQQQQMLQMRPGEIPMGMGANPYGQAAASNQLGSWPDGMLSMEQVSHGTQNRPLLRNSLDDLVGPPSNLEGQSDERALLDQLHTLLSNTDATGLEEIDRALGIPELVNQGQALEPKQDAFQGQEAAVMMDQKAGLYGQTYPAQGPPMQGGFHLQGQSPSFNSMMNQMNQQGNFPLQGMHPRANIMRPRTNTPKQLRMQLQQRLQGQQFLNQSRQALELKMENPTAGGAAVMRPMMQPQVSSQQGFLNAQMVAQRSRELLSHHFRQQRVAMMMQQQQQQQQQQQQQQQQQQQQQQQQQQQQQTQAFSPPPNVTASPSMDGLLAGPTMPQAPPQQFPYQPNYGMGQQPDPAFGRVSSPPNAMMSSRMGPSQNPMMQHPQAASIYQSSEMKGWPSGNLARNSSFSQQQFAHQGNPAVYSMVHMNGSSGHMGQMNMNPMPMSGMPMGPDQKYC
Activity calls are given as the source filed them. How the calls were made is not given here.
Mark one answer only. Choices: active, inactive

query: Record lookup: outcome of this test for COc1ccc(-n2cnc3c(sc4nccc(N(C)C)c43)c2=O)cc1 ?
result: active

query: Assay outcome for CN(Cc1cnc2nc(N)nc(N)c2n1)c1ccc(C(=O)N[C@@H](CCC(=O)O)C(=O)O)cc1 : what was it?
result: inactive

query: Assay outcome for c1ccc2c(c1)Nc1ccncc1S2 : what was it?
result: inactive

query: Record lookup: outcome of this test for Cc1ncc(CO)c(/C=N/NC(=O)c2cc3c(s2)CCCC3)c1O ?
result: active

query: I would be grateful if you could indicate the recorded call for Nc1ccc(-c2cc3ccccc3oc2=O)cc1 .
result: active

query: // return assay outcome for COc1ccccc1N(C(=O)CCl)c1cn(C(C)=O)c2ccccc12
result: active

query: Assay result, entry CC(=O)OCCN1c2ccccc2Sc2cnccc21 — outcome?
result: active

query: What did the test return for CNC(=O)c1cccn(Cc2ccc(C(F)(F)F)cc2)c1=O ?
result: inactive

query: Just curious, what result did NC(=S)N/N=C1\CCSc2ccc(Cl)cc21 get here?
result: active

query: I would be grateful if you could indicate the recorded call for O=C(N/N=C\c1ccc([N+](=O)[O-])o1)C1COc2ccccc2O1 (stereo unspecified) .
result: inactive

query: # lookup: test call for CCCNC(=O)c1nnsc1S(=O)(=O)c1ccc(Cl)cc1
result: active

query: Tell me the recorded outcome of this test for CC(=O)NC(c1cc(Cl)c2cccnc2c1O)C(C)C (stereo unspecified) .
result: active

query: Which result was noted for this compound in the test: CCOc1ccc(/C=C2\SC(=S)N(CCC(=O)O)C2=O)cc1
result: inactive

query: For Nc1ccc(Oc2ccccc2-c2ccccc2)cc1 , which call appears in the assay record?
result: inactive

query: Returns: the outcome recorded for NC(=O)c1cc(Sc2ccccc2)nc2ccccc12 in this assay.
result: active

query: // param item: COc1ccc(CCNC(=O)c2nnn(-c3ccc4c(c3)OCCO4)c2N)cc1OC ; yields the recorded call
result: inactive

query: I'd appreciate the recorded outcome for C=C1C(=O)[C@]23C[C@H]1CCC2[C@@]1(C)C(C[C@@H]3O)[C@](C)(C(=O)OC)CC[C@@H]1O (stereo partly specified) from this test.
result: active

----------
biological target: Nuclear receptor coactivator 3 (Homo sapiens) (UniProt Q9Y6Q9); experiment: NCOA3 reporter inhibition potency – cell-based, luminescence, dose response (AID 602166); details: SRC3 luciferase reporter cell assay;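 further: potency for reduction of SRC3 reporter signal so compounds are inhibitors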
Active and inactive are the calls of the source. The rule behind the calls is not given here.
Output constraint: value belongs to active, inactive

{"columns": ["MOLECULE", "ASSIGNED LABEL"],
 "data": [
  ["O=C(COC(=O)c1ccc[nH]c1=O)Nc1ccc(N2CCCCC2)cc1", "active"],
  ["Nc1ncnc(NCc2ccccc2)c1[N+](=O)[O-]", "active"],
  ["O=C(Nc1cccnc1)c1ccc(C(=O)Nc2cccnc2)cc1", "inactive"]
]}

query: Lab log entry: Brc1ccc2ncc3ccccc3c2c1 — outcome as called in the assay?
result: active

query: Record request — test call for Cc1cc(/C=C2\Cc3ccccc3C2=O)c(C)n1-c1ccccc1
result: inactive

query: Would you mind telling me which call this test gave CCCc1c(C)nc2ccccc2c1SCCC#N ?
result: active

query: What did the test return for O=[N+]([O-])c1ccc(N(CCO)CCO)c2c1no[n+]2[O-] ?
result: active

query: What outcome does the record of this test show for COc1ccc(C(C(=O)NC2CCCCC2)N(C(=O)CCl)c2ccc(OC)cc2)cc1 (stereo not drawn) ?
result: active

query: Give the logged outcome of this assay for the following molecule: CC(C)(C)c1ccc(Oc2ccc(N)cn2)cc1
result: inactive

query: Record lookup: outcome of this test for CCOC(=O)C(=CNc1ccc(NC2=NCC(C)S2)cc1)C(=O)OCC (stereo not drawn) ?
result: active

query: Each molecule tested received a call. Report the one for COc1cc(/C=C(/C(=O)c2cccs2)c2nc3ccccc3[nH]2)cc(OC)c1O .
result: inactive

query: Dear colleague, could you share the recorded outcome for O=S(=O)(/C(=C\c1ccc(C(F)(F)F)cc1)c1nc2ccccc2[nH]1)c1ccccc1 when you have a moment?
result: inactive

query: Could you check what this test reported for CC(=O)c1cccc(-c2csc3ncnc(Sc4nnnn4C)c23)c1 ?
result: inactive

query: Lab log entry: CCN(c1cccc(C)c1)c1ncnc2nc[nH]c12 — outcome as called in the assay?
result: inactive

query: Returns: the outcome recorded for CCOc1cc(C(N)=O)cc(Br)c1OC in this assay.
result: active

query: Assay outcome for C=CCn1c(C)cc(C(=O)COc2ccc(C)nc2[N+](=O)[O-])c1C : what was it?
result: inactive

query: # fetch the recorded call for Cn1cnc([N+](=O)[O-])c1Sc1nc(N)nc2c1ncn2C1OC(CO)C(O)C1O (stereo not drawn) here
result: active

query: Hello, I am checking results. What call was entered for COC(=O)c1c(C)n(-c2ccc(OC)cc2)c2ccc(O)cc12 ?
result: active

query: Look up the recorded call for COC(=O)c1cccc2c1-c1ccccc1/C2=N/O in this test.
result: active

query: Fill in: this test's call for COc1cccc(NC(=O)CSc2nnc(-c3cc(C)n(-c4ccccc4)c3C)o2)c1 is ___
result: inactive

query: Entry CCOC(=O)C(C(C)=O)c1c(Br)c(O)c(O)c2c(C(=O)c3ccc(C)cc3)coc12 (stereo not drawn) : call = ?
result: active

query: Lab log entry: CS(=O)(=O)c1ccc(Sc2nc3ccccc3s2)c([N+](=O)[O-])c1 — outcome as called in the assay?
result: inactive

query: Could you check what this test reported for Cc1ccc(N=Nc2ccc3ccccc3c2O)cc1 ?
result: inactive
